tested on: SR; assay: NCI tumour cell line growth inhibition, 48 h
The source made the active and inactive calls. No stated cut-off is given here; in the data, active = GI50 up to about 1.1 µM and inactive = higher.
Below: a set of entries, each annotated with reported GI50.

Sample answers from the record:
>>> reported_value("COc1ccc([C@H]2C=C(c3cc(F)c(Cl)cc3Cl)NC(=S)N2)cc1")
"5.24 µM (inactive)"
>>> reported_value("Cc1ccc(/C=C2\\CCCc3ccccc3C2=O)cc1")
"13.9 µM (inactive)"
>>> reported_value("CSc1nc2c(nc(C)c(=O)n2C2OCC(OC(C)=O)C(OC(C)=O)C2OC(C)=O)c(=O)[nH]1 (stereo not given)")
"> 100 µM (inactive)"

// query Find the measured GI50 of COc1ccc2c(CN3CCCCC3CO)cc3cc(OC)c(OC)cc3c2c1 (stereo not given) with SR as test system.
// result 3.72 µM (inactive)

// query Find the measured GI50 of CN1CC[C@]2(c3cccc(O)c3)CC(=O)/C(=C/c3ccc(Cl)c(Cl)c3)[C@@H]1C2 with SR as test system.
// result 0.281 µM (active)

// query Find the measured GI50 of CCOC(=O)C(=O)/C=C(\C)Nc1c(NC2OCC(OC(C)=O)C(OC(C)=O)C2OC(C)=O)nc(SC)[nH]c1=O (stereo not given) with SR as test system.
// result > 100 µM (inactive)

// query Find the measured GI50 of Clc1sc(Cl)c2c1[C@@H](Cl)C[C@@H]2Br with SR as test system.
// result 18.8 µM (inactive)

// query Find the measured GI50 of Cc1c2cnccc2c(C)c2c1c1ccccc1n2CCOC(=O)c1ccccc1 with SR as test system.
// result 17.5 µM (inactive)

// query Find the measured GI50 of CN(C)[C@@H]1C(O)=C(C(N)=O)C(=O)[C@@]2(O)C(O)=C3C(=O)c4c(O)cccc4C[C@H]3C[C@@H]12 with SR as test system.
// result 2.56 µM (inactive)

// query Find the measured GI50 of O=c1cc(-c2ccccc2)oc2ccc(Oc3nnnn3-c3ccccc3)cc12 with SR as test system.
// result > 33.1 µM (inactive)

----------
test system: 786-0; test: NCI tumour cell line growth inhibition, 48 h
Calls of active or inactive are those of the source. Rule as the data show it: active = GI50 up to about 1.1 µM and inactive = higher.
Experimental readout: GI50

Sample answers from the record:
>>> reported_value("CCOC(=O)CCSS(=O)(=O)C(F)(F)F")
"> 100 µM (inactive)"
>>> reported_value("CC(C)=CCN1CC(C)C(=O)Nc2ccccc21 (stereo not drawn)")
"> 100 µM (inactive)"

Lab note: next compound to report on.
// query Give the measured GI50 for CN(C)CCNC(=O)c1cccc2[nH]c(-c3ccccc3)nc12
// result 36.3 µM (inactive)

----------
test system: HCT-116; experiment: NCI tumour cell line growth inhibition, 48 h
Activity calls are given as the source filed them. Rule as the data show it: active = GI50 up to about 1.1 µM and inactive = higher.
Experimental readout: GI50

Sample answers from the record:
>>> reported_value("CC1CC(c2ccccc2)Nc2nc3ccccc3n21 (centres undefined)")
"66.4 µM (inactive)"
>>> reported_value("COc1ccc(/C=C2/S/C(=N\\c3ccccc3)N(NC(=O)Cc3ccccc3)C2=O)c(OC)c1")
"> 100 µM (inactive)"

// query Give the measured GI50 for CSCCCNC(=O)c1csc([C@@H](CSC)NC(=O)CCNC(=O)[C@@H](NC(=O)OCC(Br)(Br)Br)C(C)O)n1 (some centres undefined)
// result > 100 µM (inactive)

// query Give the measured GI50 for CC(NC(=O)C(C)NC(=O)C(N)CCP(C)(=O)O)C(=O)O (centres undefined)
// result > 100 µM (inactive)

// query Give the measured GI50 for Cc1ccc([C@@H]2[C@@H](C(=O)c3ccccn3)[C@H](c3ccc(C)cc3)C[C@](O)(c3ccccn3)[C@H]2C(=O)c2ccccn2)cc1
// result 2.89 µM (inactive)

// query Give the measured GI50 for OCC1OC(NO)C(O)C(O)C1O (centres undefined)
// result > 100 µM (inactive)

// query Give the measured GI50 for O=S(=O)(c1ccccc1)[C@H]1[C@@H]2O[C@@H]2C[C@@H]1O
// result > 100 µM (inactive)

// query Give the measured GI50 for CC(C)(C)OC(=O)NC12C3C4C1C1C2C3C41NC(=O)OC(C)(C)C (centres undefined)
// result 47.3 µM (inactive)

// query Give the measured GI50 for CCCN/C(N)=N/C#N
// result 67 µM (inactive)

----------
system: PC-3; assay: NCI tumour cell line growth inhibition, 48 h
Active and inactive are the calls of the source. Rule as the data show it: active = GI50 up to about 1.1 µM and inactive = higher.
Experimental readout: GI50

Sample answers from the record:
>>> reported_value("COc1ccc(/C=C(/c2ccc(OC)cc2)c2c(Cl)cc(Cl)c(/C(=C\\c3ccc(OC)cc3)c3ccc(OC)cc3)c2/N=N/c2ccccc2)cc1")
"> 100 µM (inactive)"
>>> reported_value("O=C(/C=C/c1ccccc1)CSc1nc2ccc(I)cc2c(=O)n1Cc1ccccc1")
"18.3 µM (inactive)"
>>> reported_value("CCCCCCCC(=O)N1C2CC3CCC2(CS1(=O)=O)C3(C)C (stereo not given)")
"23.7 µM (inactive)"
>>> reported_value("CN(CCNC(=O)c1cn(C)c2c1ccc1ccccc12)CCNC(=O)c1cn(C)c2c1ccc1ccccc12")
"2.42 µM (inactive)"
>>> reported_value("CSc1csc(-c2ccc(-c3ccc(-c4cc(SC)cs4)s3)s2)c1")
"> 100 µM (inactive)"

// query Give the measured GI50 for CC1/C=C/C=C/CC/C=C/C=C/C=C/C=C/C(OC2OC(C)C(O)C(N)C2O)CC2OC(CC(O)C(O)CCC(O)CC(O)CC(O)CC(=O)OC(C)C(C)C1O)CC(O)C2C(=O)O (stereo not given)
// result 18.8 µM (inactive)

// query Give the measured GI50 for Cc1ccc([N+](=O)[O-])cc1S(=O)(=O)Nc1ccc(C2=NN(S(=O)(=O)c3cc([N+](=O)[O-])ccc3C)C(c3cccs3)C2)cc1 (stereo not given)
// result 30 µM (inactive)

// query Give the measured GI50 for CC(C)=NN/C(=N\c1ccc(Cl)cc1)NS(=O)(=O)c1cc2ccccc2s1
// result 45.7 µM (inactive)

// query Give the measured GI50 for Cc1csc(NCc2ccc(Cl)cc2)n1
// result 37.8 µM (inactive)

// query Give the measured GI50 for NC1=NCC(CN2CCOCC2)O1 (stereo not given)
// result > 100 µM (inactive)

----------
test system: CCRF-CEM; assay: NCI tumour cell line growth inhibition, 48 h
Calls of active or inactive are those of the source. Cut-off read from the data, not from the text of the source: active = GI50 up to about 1.1 µM and inactive = higher.
API: response.call in yes = active, no = inactive

Take a look at these entries with their results.
>>> assigned_label("CCCCCCCCCCCCCP(=O)(OC)OC")
"no"
>>> assigned_label("CC(C)(C)c1cc(C(=O)O)c(C(c2ccccc2)c2ccccc2C(=O)O)c(C(=O)O)c1 (centres undefined)")
"no"
>>> assigned_label("COC1C(O)=C2C(=O)O/C(C)=C/C=C/C=C/C=C\\CC(c3ccccc3)NC(=O)\\C=C/C=C\\C=C\\C=C\\[C@@]2(C)[C@@H]1O (some centres undefined)")
"yes"

Here is the next item to consider.
// query What did the test return for CCOC(=O)C1(c2ccccc2)CCC(=O)CC1 ?
// result no

----------
system: SW-620; experiment: NCI tumour cell line growth inhibition, 48 h
The source made the active and inactive calls. No stated cut-off is given here; in the data, active = GI50 up to about 1.1 µM and inactive = higher.
API: response.call in label 1 (active), label 0 (inactive)

Take a look at these entries with their results.
>>> assigned_label("O=C1Nc2ccccc2/C1=C\\c1c(Cl)[nH]c2ccccc12")
"label 1"
>>> assigned_label("CC(C)=CC[C@H]1C[C@]2(CC=C(C)C)C(=O)[C@@](CC=C(C)C)(C(=O)C(C(=O)c3ccccc3)=C2O)C1(C)C [6-EPI-CLUSIANONE]")
"label 0"
>>> assigned_label("CCOC(=O)c1cc(/C=C/C(C)=C/C(=O)OC)n(C)c1C")
"label 0"
>>> assigned_label("Nc1ccc(C(=O)N/C(=C\\c2cccc([N+](=O)[O-])c2)c2nc3ccccc3[nH]2)cc1")
"label 0"
>>> assigned_label("O=c1c(-c2ccc(O)cc2)coc2cc(O)cc(O)c12 [GENISTEIN]")
"label 0"

// query What did the test return for O=C(/C=C/c1ccccc1)CSc1nc2ccc(I)cc2c(=O)n1Cc1ccccc1 ?
// result label 0

// query What did the test return for O=C1Oc2ccccc2C(=O)/C1=C\Nc1nc(-c2ccccc2)cs1 ?
// result label 0

// query What did the test return for CCC(Nc1ncnc2nc[nH]c12)C(=O)O (stereo not drawn) ?
// result label 0

----------
test system: HCC 2998; assay: NCI tumour cell line growth inhibition, 48 h
Calls of active or inactive are those of the source. Cut-off read from the data, not from the text of the source: active = GI50 up to about 1.1 µM and inactive = higher.
Experimental readout: GI50

>>> reported_value("O=[N+]([O-])c1cc(C(F)(F)F)ccc1S(=O)(=O)N[C@@H]1CCCC[C@H]1NS(=O)(=O)c1ccc(C(F)(F)F)cc1[N+](=O)[O-]")
"4.28 µM (inactive)"
>>> reported_value("CC(C)COC(c1ccc2c(c1)OCO2)C(C)Br (configuration not stated)")
"18.4 µM (inactive)"
>>> reported_value("COC(=O)c1cc2c(cc1CC(Cc1ccc3c(c1)CCC3)C(=O)OC)CCC2 (configuration not stated)")
"34.5 µM (inactive)"

Lab note: next compound to report on.
// query Give the measured GI50 for CSc1csc(-c2ccc(-c3ccc(-c4cc(SC)cs4)s3)s2)c1
// result > 100 µM (inactive)
